// provenance: PubChem BioAssay (NCI)

Test system: OVCAR-5 ovarian
Assay: NCI tumour cell line growth inhibition, 48 h
Readout Kind: GI50

CCCC(CCC)C(=O)O : > 20000 µM
COc1cc(OC)c2c(c1Cl)O[C@]1(C2=O)C(OCc2ccccc2)=CC(=O)C[C@H]1C : 1.83 µM
NS(=O)(=O)c1ccc(N=Nc2c(=O)[nH]c3ccc4[nH]cccc4c23)cc1 : 1.02 µM
CNCC1CCn2c(c(C3=C(c4cn(C)c5ccccc45)C(=O)NC3=O)c3ccccc32)C1 (configuration not stated) : 3.07 µM

Report GI50 for Nc1nc(N)c(-c2ccc(Cl)cc2)c(/C=C/c2ccc([N+](=O)[O-])cc2)n1 please.
38.2 µM

Ok, now COn1cc(C(=O)N=C(SC)SC)c2ccccc21
26.2 µM

Then this molecule: COc1ccc(CNC(=O)c2c(C)n([O-])c3cc(F)c(F)cc3[n+]2=O)cc1
16 µM
